Attribution: PubChem BioAssay (NCI)

I'd be grateful if you could share measured GI50 for these entries.
test system: OVCAR-3 ovarian; assay: NCI tumour cell line growth inhibition, 48 h

Below, each entry is followed by its recorded GI50 result.
Molecule	GI50
CC[C@]12C=CCN3CC[C@@]4(c5ccc(OC)cc5N(C)[C@H]4[C@@](O)(C(=O)OC)[C@@H]1OC(=O)CCC(=O)O[C@H]1CC[C@H]4[C@@H]5CC[C@H]6CC(=O)CC[C@]6(C)[C@H]5CC[C@]14C)[C@@H]32	3.05 µM
O=C(Nc1n[nH]c2nc(-c3ccc(O)cc3)c(Br)cc12)C1CC1	1.39 µM
COc1ccc(C2=NN(C(C)=O)C(c3ccc(Oc4ccnc5cc(Cl)ccc45)c(OC)c3)C2)cc1 (centres undefined)	5.4 µM
COc1cc2c(/C=C3/C(=O)Nc4ccc(O)cc43)c(Cl)n(Cc3cc(OC)c(OC)c(OC)c3)c2cc1C	1.32 µM
FC(F)(F)c1cc(NC(=S)N2c3ccccc3-n3cccc3C2c2cccnc2)cc(C(F)(F)F)c1 (centres undefined)	3.01 µM

Go through the items and report each one's GI50.
1. COc1ccc(-c2cc(-c3ccc(OC)cc3)nc(NCCCNc3ccnc4cc(Cl)ccc34)n2)cc1
2. O=C(c1ccccc1)C1OC1C(=O)c1ccccc1 (centres undefined)
3. CC1=C2[C@@H](CC1)[C@]1(C)O[C@@](C(C)C)(C[C@H]1OC(=O)CO)[C@H]2OC(=O)CCCc1ccccc1
4. COc1ccc2c(c1)C(=O)c1c-2c(N2CCN(C(=O)CCNCCNCCN)CC2)nc2ccccc12

1. 1.7 µM
2. 1.77 µM
3. 6.94 µM
4. 16.8 µM

###

test system: MDA-MB-231 breast; assay: NCI tumour cell line growth inhibition, 48 h
Metric name: TGI

Below, each entry is followed by its recorded TGI result.
Molecule	Measurement target	TGI
CCOC(=O)/C(=C\c1cn(C(C)=O)c2ccccc12)P(C)(=O)OCC (centres undefined)	MDA-MB-231 breast	81.7 µM
COc1ccc2c(c1)C(=O)c1c-2c(N2CCN(C(=O)CCNCCNCCN)CC2)nc2ccccc12	MDA-MB-231 breast	27.5 µM
COc1c(C)c(OC)c(C(=O)CC(C)C)c(OC)c1C	MDA-MB-231 breast	> 100 µM
COC(=O)c1sc2c(=O)c(C(=O)OC)c(C(=O)OC)sc2c(=O)c1C(=O)OC	MDA-MB-231 breast	> 100 µM

Go through the items and report each one's TGI.
1. CCOC(=O)C(NC(=O)c1ccccc1)(c1ccc(S(=O)(=O)Nc2onc(C)c2C)cc1)C(F)(F)F (centres undefined)
2. COc1ccc(-c2cc(-c3ccc(OC)cc3)nc(NCCCNc3ccnc4cc(Cl)ccc34)n2)cc1

> 100 µM
3.59 µM

Go through the items and report each one's TGI.
1. O=C(c1ccccc1)C1OC1C(=O)c1ccccc1 (centres undefined)
2. NNC(=O)CC(=O)Nc1ccc(S(=O)(=O)c2ccc(NC(=O)CC(=O)NN)cc2)cc1

1. > 100 µM
2. > 100 µM

Reading of TGI for CC(C)=Cc1cccc2[nH]c(O)c(N=Nc3ccc(S(N)(=O)=O)cc3)c12 with MDA-MB-231 breast: > 25 µM

###

system: UACC-62 melanoma; assay: NCI tumour cell line growth inhibition, 48 h; in the data active = GI50 below about 0.43 µM; inactive = the rest
Assign a class; possible classes are active, inactive

Compound	Label class
CCN1C(=O)N(CC)C2C1NN=c1s/c(=C\c3ccc(C(F)(F)F)cc3)c(=O)n12 (stereo not drawn)	inactive

So what was the verdict on CC[O-].CC[O-].O=C([CH-]C(=O)c1ccccc1)CCCCCCC(=O)[CH-]C(=O)c1ccccc1.[Ti+4] in this test?
inactive

So what was the verdict on COc1cc2c(/C=C3/C(=O)Nc4ccc(O)cc43)c(Cl)n(Cc3cc(OC)c(OC)c(OC)c3)c2cc1C in this test?
inactive

So what was the verdict on COc1cc2c3c(n(CCCn4cncn4)c(=O)c2cc1OC)-c1cc2c(cc1C3=O)OCO2 in this test?
active

So what was the verdict on CC1(C)CCc2c(c(N=Nc3ccccc3F)c3ccccc3c2O)O1 in this test?
inactive

So what was the verdict on CCCCc1n(Cc2ccc3ccccc3n2)cc[n+]1Cc1ccc2ccccc2n1 in this test?
inactive
